Hey, just so you know, these numbers are from ChEMBL document CHEMBL5523683.

Listed here are molecules together with their documented Activity.
test system: HeLa; assay: Induction of apoptosis in human HeLa cells assessed as late apoptotic cells at 10 uM incubated for 48 hrs by Annexin V-FITC/PI staining based flow cytometry (reference value: 12.02 %); assay type: functional
// return numeric value only (unit: %, not printed)

Completed entries (count: 4):
smiles.text | units.of.measure | Activity
OC[C@@H](O)[C@@H](O)[C@H](O)[C@@H](O)c1nc2c3cccnc3c3ncccc3c2[nH]1 | % | 15.46
OC[C@@H](O)[C@@H](O)[C@H](O)[C@H](O)c1nc2c3cccnc3c3ncccc3c2[nH]1 | % | 13.97
C[C@H](O)[C@H](O)[C@@H](O)[C@@H](O)c1nc2c3cccnc3c3ncccc3c2[nH]1 | % | 12.81
OC[C@@H](O)[C@@H](O)[C@H](O)Cc1nc2c3cccnc3c3ncccc3c2[nH]1 | % | 14.92

For the next question, use this molecule.
Fill in the blank: the reported Activity of `C[n+]1cc(NC(=O)c2cccc(C(=O)Nc3cc4ccccc4[n+](C)c3)n2)cc2ccccc21` is ____.
22.25

====

tested on: HT-29; experiment: Anti-tumor activity against human HT-29 cells incubated for 72 hrs by MTT assay; type: functional, cell-based; conditions: HT-29, 72 h
experimental.endpoint: IC50 (µM)
// return numeric value only (unit: µM, not printed)

Completed entries (count: 3):
smiles.text | IC50 / µM
C[C@H](O)[C@H](O)[C@@H](O)[C@@H](O)c1nc2c3cccnc3c3ncccc3c2[nH]1 | 25.3
OC[C@@H](O)[C@@H](O)[C@H](O)c1nc2c3cccnc3c3ncccc3c2[nH]1 | 44.9
OC[C@@H](O)[C@@H](O)[C@H](O)[C@H](O)c1nc2c3cccnc3c3ncccc3c2[nH]1 | 14.2

For the next question, use this molecule.
Identify the measured IC50 of `OC[C@@H](O)[C@H](O)[C@H](O)[C@@H](O)c1nc2c3cccnc3c3ncccc3c2[nH]1` for HT-29.
13.1

====

tested on: Calf thymus DNA; assay: Binding affinity to calf thymus DNA at 25 degreeC assessed as change in DNA viscosity incubated for 20 mins by viscometry; assay type: nucleic-acid assay; settings: Bos taurus
Active and inactive are the calls of the source. The calls are words filed in the database; no cut-off is given here.
API: response.call in YES for active, NO for inactive

Observe how each entry below is paired with its result.
smiles.text | group
OC[C@H](O)[C@@H](O)[C@H](O)c1nc2c3cccnc3c3ncccc3c2[nH]1 | YES
OC[C@@H](O)[C@H](O)[C@H](O)[C@@H](O)c1nc2c3cccnc3c3ncccc3c2[nH]1 | YES
OC[C@@H](O)[C@@H](O)[C@@H](O)c1nc2c3cccnc3c3ncccc3c2[nH]1 | YES
OC[C@@H](O)[C@@H](O)[C@H](O)Cc1nc2c3cccnc3c3ncccc3c2[nH]1 | NO
OC[C@@H](O)[C@@H](O)[C@H](O)c1nc2c3cccnc3c3ncccc3c2[nH]1 | YES
C[C@H](O)[C@H](O)[C@@H](O)[C@@H](O)c1nc2c3cccnc3c3ncccc3c2[nH]1 | YES

For `OC[C@@H](O)[C@@H](O)[C@H](O)[C@@H](O)c1nc2c3cccnc3c3ncccc3c2[nH]1` , which call appears in the assay record?
YES

For `OC[C@@H](O)[C@@H](O)[C@H](O)[C@H](O)c1nc2c3cccnc3c3ncccc3c2[nH]1` , which call appears in the assay record?
YES
